# systemUnderTest: MAP kinase-activated protein kinase 3 (Homo sapiens, UniProt Q16644)
# Sequence (Q16644 whole entry): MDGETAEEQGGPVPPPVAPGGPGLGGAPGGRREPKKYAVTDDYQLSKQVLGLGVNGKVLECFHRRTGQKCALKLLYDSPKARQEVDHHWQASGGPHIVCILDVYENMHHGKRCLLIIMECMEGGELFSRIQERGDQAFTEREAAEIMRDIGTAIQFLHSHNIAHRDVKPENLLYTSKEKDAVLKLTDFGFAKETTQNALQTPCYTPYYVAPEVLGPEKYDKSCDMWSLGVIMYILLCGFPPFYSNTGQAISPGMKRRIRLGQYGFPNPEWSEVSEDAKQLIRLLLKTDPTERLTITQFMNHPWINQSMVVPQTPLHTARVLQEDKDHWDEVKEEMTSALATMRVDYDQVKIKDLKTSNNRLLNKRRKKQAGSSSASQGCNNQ
# Type: functional, cell-based, Monocyte

itemSmiles	IC50 [µM]
Cc1ccc(-c2ccc3c(ccc4sc5c(c43)NC[C@@H](C)NC5=O)n2)cn1	2.78

====

# systemUnderTest: Cyclin-dependent kinase 8 (Homo sapiens, UniProt P49336)
# Sequence (P49336 whole entry): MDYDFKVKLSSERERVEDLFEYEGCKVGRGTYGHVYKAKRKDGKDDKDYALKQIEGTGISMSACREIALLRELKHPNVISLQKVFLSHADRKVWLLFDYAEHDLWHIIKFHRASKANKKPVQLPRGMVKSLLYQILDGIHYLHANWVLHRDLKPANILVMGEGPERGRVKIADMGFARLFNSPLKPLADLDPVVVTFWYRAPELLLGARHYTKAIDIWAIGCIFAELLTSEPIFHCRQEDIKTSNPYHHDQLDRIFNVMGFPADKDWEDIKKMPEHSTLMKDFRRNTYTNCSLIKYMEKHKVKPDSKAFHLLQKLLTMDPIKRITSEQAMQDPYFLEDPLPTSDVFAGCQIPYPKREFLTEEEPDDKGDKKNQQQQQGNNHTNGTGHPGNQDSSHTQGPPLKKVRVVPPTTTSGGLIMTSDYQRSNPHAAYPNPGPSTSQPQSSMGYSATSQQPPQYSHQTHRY
# assayDetails: Affinity Phenotypic Cellular interaction: (Inhibition of pSTAT S727 in NK-92 cells) EUB0000163b CDK8
# Assay type: functional, cell-based
# Set-up: mode of action Negative control for BI-1347, recommended concentration 100 nM

itemSmiles	IC50
CN(C)C(=O)Cn1cc(-c2ccc(-c3nnc4ccccn34)cc2)cn1	> 10 µM

src = ChEMBL document CHEMBL5444388
